Measured selectivity ratio values are reported for all entries that follow.
test: in vitro; conditions: human, MT4 cells

Compound	Result qualifier	selectivity ratio
CCC(C)C(=O)O[C@@]12C[C@@H](C)[C@@]3(O)[C@@H](C=C(CO)C[C@]4(O)C(=O)C(C)=C[C@@H]34)[C@@H]1C2(C)C (some centres not stated)	=	899
Nc1ccn([C@@H]2CS[C@H](CO)O2)c(=O)n1	>	22
Cc1ccnc2c1NC(=O)c1cccnc1N2C1CC1	=	148
CCCCCCCCC(=O)/C=C/C=C/C=C/C(=O)O[C@@]12C[C@@H](C)[C@@]3(O)[C@@H](C=C(CO)C[C@]4(O)C(=O)C(C)=C[C@@H]34)[C@@H]1C2(C)C	=	299
CC/C=C/C=C/C=C\C(=O)O[C@@H]1[C@@H](C)[C@]2(O)[C@@H]3C=C(C)C(=O)[C@@H]3CC(CO)=C[C@H]2[C@@H]2C(C)(C)[C@]12OC(=O)CCC	=	36
O=c1[nH]cnc2c1ncn2[C@H]1CC[C@@H](CO)O1	>	4.6
CCC(C)C(=O)O[C@@]12[C@H](OC(C)=O)[C@@H](C)[C@@]3(O)[C@@H](C=C(CO)C[C@]4(O)C(=O)C(C)=C[C@@H]34)[C@@H]1C2(C)C (some centres not stated)	=	376

* * *

Measured CC50 at 72 h values are reported for all entries that follow.
experiment: in vitro; settings: human, MT4 cells

Compound	Result unit	Result qualifier	CC50 at 72 h
Cc1ccnc2c1NC(=O)c1cccnc1N2C1CC1	µM	>	15
O=c1[nH]cnc2c1ncn2[C@H]1CC[C@@H](CO)O1	µM	>	50
CCCCCCCCC(=O)/C=C/C=C/C=C/C(=O)O[C@@]12C[C@@H](C)[C@@]3(O)[C@@H](C=C(CO)C[C@]4(O)C(=O)C(C)=C[C@@H]34)[C@@H]1C2(C)C	µM	=	13
CCC(C)C(=O)O[C@@]12[C@H](OC(C)=O)[C@@H](C)[C@]3(O)[C@@H]4C=C(C)C(=O)[C@@H]4CC(CO)=C[C@H]3[C@@H]1C2(C)C (some centres undefined)	µM	=	85
CCC(C)C(=O)O[C@@]12[C@H](OC(C)=O)[C@@H](C)[C@@]3(O)[C@@H](C=C(CO)C[C@]4(O)C(=O)C(C)=C[C@@H]34)[C@@H]1C2(C)C (some centres undefined)	µM	=	102
CCC(C)C(=O)O[C@@]12C[C@@H](C)[C@@]3(O)[C@@H](C=C(CO)C[C@]4(O)C(=O)C(C)=C[C@@H]34)[C@@H]1C2(C)C (some centres undefined)	µM	=	116
Cc1cn([C@H]2C[C@H](N=[N+]=[N-])[C@@H](CO)O2)c(=O)[nH]c1=O	µM	>	25
Nc1ccn([C@@H]2CS[C@H](CO)O2)c(=O)n1	µM	>	87
CC/C=C/C=C/C=C\C(=O)O[C@@H]1[C@@H](C)[C@]2(O)[C@@H]3C=C(C)C(=O)[C@@H]3CC(CO)=C[C@H]2[C@@H]2C(C)(C)[C@]12OC(=O)CCC	µM	=	8.4

* * *

test system: Human immunodeficiency virus 2; experiment: microbe, parasite or virus in culture; conditions: Human immunodeficiency virus 2, ISOLATE ROD, MT4, 120 h
Measured EC50 values are reported for all entries that follow.

Molecule	Result unit	EC50
CC/C=C/C=C/C=C\C(=O)O[C@@H]1[C@@H](C)[C@]2(O)[C@@H]3C=C(C)C(=O)[C@@H]3CC(CO)=C[C@H]2[C@@H]2C(C)(C)[C@]12OC(=O)CCC	µM	0.174
CCC(C)C(=O)O[C@@]12[C@H](OC(C)=O)[C@@H](C)[C@]3(O)[C@@H]4C=C(C)C(=O)[C@@H]4CC(CO)=C[C@H]3[C@@H]1C2(C)C (stereo partly drawn)	µM	13
CCC(C)C(=O)O[C@@]12C[C@@H](C)[C@@]3(O)[C@@H](C=C(CO)C[C@]4(O)C(=O)C(C)=C[C@@H]34)[C@@H]1C2(C)C (stereo partly drawn)	µM	0.056

* * *

assay: in vitro; conditions: human, MT4 cells
Entries whose selectivity ratio is below 900 take Fulfilled; entries at or above 900 take Not fulfilled.

Compound	Qualitative label
CCCCCCCCC(=O)/C=C/C=C/C=C/C(=O)O[C@@]12C[C@@H](C)[C@@]3(O)[C@@H](C=C(CO)C[C@]4(O)C(=O)C(C)=C[C@@H]34)[C@@H]1C2(C)C	Not fulfilled
CCC(C)C(=O)O[C@@]12C[C@@H](C)[C@@]3(O)[C@@H](C=C(CO)C[C@]4(O)C(=O)C(C)=C[C@@H]34)[C@@H]1C2(C)C (some centres not stated)	Not fulfilled
CC/C=C/C=C/C=C\C(=O)O[C@@H]1[C@@H](C)[C@]2(O)[C@@H]3C=C(C)C(=O)[C@@H]3CC(CO)=C[C@H]2[C@@H]2C(C)(C)[C@]12OC(=O)CCC	Fulfilled
CCC(C)C(=O)O[C@@]12[C@H](OC(C)=O)[C@@H](C)[C@@]3(O)[C@@H](C=C(CO)C[C@]4(O)C(=O)C(C)=C[C@@H]34)[C@@H]1C2(C)C (some centres not stated)	Not fulfilled
CCC(C)C(=O)O[C@@]12[C@H](OC(C)=O)[C@@H](C)[C@]3(O)[C@@H]4C=C(C)C(=O)[C@@H]4CC(CO)=C[C@H]3[C@@H]1C2(C)C (some centres not stated)	Fulfilled

* * *

system: Semliki Forest virus; experiment: microbe, parasite or virus in culture; conditions: strain Vietnam, Vero
Measured EC50 values are reported for all entries that follow.
Quantity name: EC50

Compound	Experimental system	Quantity name	Value observed
CCC(C)C(=O)O[C@@]12[C@H](OC(C)=O)[C@@H](C)[C@@]3(O)[C@@H](C=C(CO)C[C@]4(O)C(=O)C(C)=C[C@@H]34)[C@@H]1C2(C)C (some centres undefined)	Semliki Forest virus	EC50	> 255 µM
CC/C=C/C=C/C=C\C(=O)O[C@@H]1[C@@H](C)[C@]2(O)[C@@H]3C=C(C)C(=O)[C@@H]3CC(CO)=C[C@H]2[C@@H]2C(C)(C)[C@]12OC(=O)CCC	Semliki Forest virus	EC50	> 177 µM
CCCCCCCCC(=O)/C=C/C=C/C=C/C(=O)O[C@@]12C[C@@H](C)[C@@]3(O)[C@@H](C=C(CO)C[C@]4(O)C(=O)C(C)=C[C@@H]34)[C@@H]1C2(C)C	Semliki Forest virus	EC50	> 168 µM
CCC(C)C(=O)O[C@@]12C[C@@H](C)[C@@]3(O)[C@@H](C=C(CO)C[C@]4(O)C(=O)C(C)=C[C@@H]34)[C@@H]1C2(C)C (some centres undefined)	Semliki Forest virus	EC50	> 289 µM

* * *

test system: Human immunodeficiency virus 2; assay: microbe, parasite or virus in culture; settings: Human immunodeficiency virus 2, ISOLATE ROD, MT4, 120 h
pEC50: −log10 of the molar value.
Measured pEC50 values are reported for all entries that follow.

Compound	Result qualifier	pEC50
Nc1ccn([C@@H]2CS[C@H](CO)O2)c(=O)n1	=	4.81
CCCCCCCCC(=O)/C=C/C=C/C=C/C(=O)O[C@@]12C[C@@H](C)[C@@]3(O)[C@@H](C=C(CO)C[C@]4(O)C(=O)C(C)=C[C@@H]34)[C@@H]1C2(C)C	=	7.74
O=c1[nH]cnc2c1ncn2[C@H]1CC[C@@H](CO)O1	=	5.02
Cc1ccnc2c1NC(=O)c1cccnc1N2C1CC1	<	4.82
CCC(C)C(=O)O[C@@]12[C@H](OC(C)=O)[C@@H](C)[C@@]3(O)[C@@H](C=C(CO)C[C@]4(O)C(=O)C(C)=C[C@@H]34)[C@@H]1C2(C)C (stereo not given in full)	=	6.97

* * *

Measured pEC50 values are reported for all entries that follow.
tested on: Human immunodeficiency virus 1; experiment: microbe, parasite or virus in culture; conditions: Human immunodeficiency virus 1, 3B, MT4, 120 h
pEC50: −log10 of the molar value.
Quantity name: pEC50

Compound	Experimental system	Quantity name	Result qualifier	Value observed
CCC(C)C(=O)O[C@@]12[C@H](OC(C)=O)[C@@H](C)[C@@]3(O)[C@@H](C=C(CO)C[C@]4(O)C(=O)C(C)=C[C@@H]34)[C@@H]1C2(C)C (stereo partly drawn)	Human immunodeficiency virus 1	pEC50	=	6.57
O=c1[nH]cnc2c1ncn2[C@H]1CC[C@@H](CO)O1	Human immunodeficiency virus 1	pEC50	=	4.97
CC/C=C/C=C/C=C\C(=O)O[C@@H]1[C@@H](C)[C@]2(O)[C@@H]3C=C(C)C(=O)[C@@H]3CC(CO)=C[C@H]2[C@@H]2C(C)(C)[C@]12OC(=O)CCC	Human immunodeficiency virus 1	pEC50	=	6.63
CCC(C)C(=O)O[C@@]12[C@H](OC(C)=O)[C@@H](C)[C@]3(O)[C@@H]4C=C(C)C(=O)[C@@H]4CC(CO)=C[C@H]3[C@@H]1C2(C)C (stereo partly drawn)	Human immunodeficiency virus 1	pEC50	<	4.07
CCC(C)C(=O)O[C@@]12C[C@@H](C)[C@@]3(O)[C@@H](C=C(CO)C[C@]4(O)C(=O)C(C)=C[C@@H]34)[C@@H]1C2(C)C (stereo partly drawn)	Human immunodeficiency virus 1	pEC50	=	6.89
Nc1ccn([C@@H]2CS[C@H](CO)O2)c(=O)n1	Human immunodeficiency virus 1	pEC50	=	5.41
CCCCCCCCC(=O)/C=C/C=C/C=C/C(=O)O[C@@]12C[C@@H](C)[C@@]3(O)[C@@H](C=C(CO)C[C@]4(O)C(=O)C(C)=C[C@@H]34)[C@@H]1C2(C)C	Human immunodeficiency virus 1	pEC50	=	7.37
Cc1ccnc2c1NC(=O)c1cccnc1N2C1CC1	Human immunodeficiency virus 1	pEC50	=	8.00
